- Tested system: 5-hydroxytryptamine receptor 2A (Rattus norvegicus) (UniProt P14842)
- Sequence (P14842 whole entry): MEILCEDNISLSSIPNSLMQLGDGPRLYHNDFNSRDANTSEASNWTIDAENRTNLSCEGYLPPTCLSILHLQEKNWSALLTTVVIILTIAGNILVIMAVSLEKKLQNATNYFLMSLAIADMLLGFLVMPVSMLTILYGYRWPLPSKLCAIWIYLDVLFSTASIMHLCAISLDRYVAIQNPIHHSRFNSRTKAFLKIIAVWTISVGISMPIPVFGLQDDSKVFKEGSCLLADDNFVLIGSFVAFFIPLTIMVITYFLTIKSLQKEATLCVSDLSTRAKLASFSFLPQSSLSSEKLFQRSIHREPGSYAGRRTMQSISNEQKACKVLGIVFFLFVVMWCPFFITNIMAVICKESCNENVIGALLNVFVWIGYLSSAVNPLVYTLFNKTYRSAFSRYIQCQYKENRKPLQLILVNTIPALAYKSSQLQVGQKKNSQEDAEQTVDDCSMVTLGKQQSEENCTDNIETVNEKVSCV
- Experiment description: Percent maximal 5-HT stimulation at cloned rat 5-hydroxytryptamine 2A receptor (phosphoinositide hydrolysis study) at a conc of 100 uM
Reported property: Max stimulation (%)

INSERT INTO assay_data (compound, unit_of_measurement, recorded_measurement) VALUES
  ('C[C@@H](N)Cc1c2c(c(Br)c3c1OCC3)OCC2', '%', 80),
  ('C[C@@H](N)Cc1c2c(c(C(F)(F)F)c3c1OCC3)OCC2', '%', 69),
  ('C[C@@H](N)Cc1c2c(cc3c1OCC3)OCC2', '%', 99),
  ('COc1cc(CC(C)N)c(OC)cc1Br (stereo unspecified)', '%', 79),
  ('C[C@H](N)Cc1c2c(c(C(F)(F)F)c3c1OCC3)OCC2', '%', 60),
  ('C[C@@H](N)Cc1c2ccoc2c(Br)c2ccoc12', '%', 93);

// data source = ChEMBL document CHEMBL1134366
